- Assay Explanation: NTR1-driven beta-arrestin-GFP spot formation – imaging, U2OS cells, high content, primary screen (AID 493036)
- Particulars: agonist mode, measured here: cell count, cytotoxicity flag, at 20 µM
Among all 330,000 compounds or so, about 560 (0.17%) were called active. The sample holds actives, similar compounds and a random draw of the others, so the mix is not that of the screen.
Observable: cell count (cells)
Write the answer as a number in cells, unit excluded.

Molecule	cell count [cells]
C=CCNc1nc(N)c([N+](=O)[O-])c(NC2CCCCC2)n1	87

INPUT: Please indicate cell count recorded for CC(C)c1ccccc1OCC(O)CN(CC(O)COc1cccc2ccccc12)C(C)C (stereo unspecified)
OUTPUT: 48

INPUT: Please indicate cell count recorded for CC1=NNC(=O)C1CCC(=O)N/N=C\c1cccc(Cl)c1 (stereo unspecified)
OUTPUT: 94

INPUT: Please indicate cell count recorded for COCc1cc(=O)[nH]c(-c2ccc(C(F)(F)F)cc2)n1
OUTPUT: 62

INPUT: Please indicate cell count recorded for CCC(C)Sc1nc2c(c(=O)[nH]c(=O)n2C)n1CC(O)COc1cccc2ccccc12 (stereo unspecified)
OUTPUT: 51

INPUT: Please indicate cell count recorded for Cc1cc(C)c(NC(=O)C[N+](C)(C)CC(O)COc2cccc3ccccc23)c(C)c1 (stereo unspecified)
OUTPUT: 43

INPUT: Please indicate cell count recorded for CC(=O)N1C(C)c2ccccc2C(C)(C)CC12CCCCC2 (stereo unspecified)
OUTPUT: 51

INPUT: Please indicate cell count recorded for CC(C)(C)Nc1c(-c2cccs2)nc2ccccn12
OUTPUT: 43
